molecular target: Cyclooxygenase (Homo sapiens, UniProt P35354+P23219); test: Inhibition of human platelet Prostaglandin G/H synthase
parameter_measured: IC50

Look up IC50 for this compound: `Cc1cc(/C=C/c2cc(F)cc(F)c2)cc(C)c1O`
1 µM

For the compound shown here, `Cc1cc(/C=C/c2ccc3ccccc3c2)cc(C)c1O` , give the reported IC50.
< 10 µM

Need IC50, item `Cc1cc(C(=O)/C=C/c2cccs2)cc(C)c1O`
< 10 µM

// lookup IC50 for `Cc1cc(/C=C/c2ccccc2C(F)(F)F)cc(C)c1O`
< 1 µM

Consider the compound `Cc1cc(/C=C/c2ccccn2)cc(C)c1O` and give its measured IC50.
2.5 µM

----------
target: Polyunsaturated fatty acid 5-lipoxygenase (Homo sapiens) (UniProt P09917); test: Inhibition of lipoxygenase at the concentration of 0.1 uM
Sequence (P09917 whole entry): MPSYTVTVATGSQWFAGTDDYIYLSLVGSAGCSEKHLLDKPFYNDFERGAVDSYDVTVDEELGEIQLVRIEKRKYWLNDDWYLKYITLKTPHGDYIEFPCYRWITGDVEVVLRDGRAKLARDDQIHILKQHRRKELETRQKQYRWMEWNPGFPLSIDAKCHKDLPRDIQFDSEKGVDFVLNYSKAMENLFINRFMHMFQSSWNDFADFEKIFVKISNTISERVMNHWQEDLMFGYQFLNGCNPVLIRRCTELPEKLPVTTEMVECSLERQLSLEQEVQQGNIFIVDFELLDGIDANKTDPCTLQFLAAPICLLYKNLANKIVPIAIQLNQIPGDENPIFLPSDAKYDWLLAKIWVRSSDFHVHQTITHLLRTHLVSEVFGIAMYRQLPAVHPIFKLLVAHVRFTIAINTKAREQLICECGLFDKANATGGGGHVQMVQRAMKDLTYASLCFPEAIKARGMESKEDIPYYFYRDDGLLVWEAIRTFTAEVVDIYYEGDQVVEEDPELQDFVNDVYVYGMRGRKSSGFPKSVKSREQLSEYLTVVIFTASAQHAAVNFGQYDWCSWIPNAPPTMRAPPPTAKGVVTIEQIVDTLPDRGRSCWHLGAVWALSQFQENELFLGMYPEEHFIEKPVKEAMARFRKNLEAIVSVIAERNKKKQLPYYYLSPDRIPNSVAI
For each of the compounds below, state its inhibition.
Your answer should be a plain number; it is taken to be in %.

Reported inhibition for `Cc1cc(/C=C/c2cccc3ccccc23)cc(C)c1O` : what is it?
27

GET /values?readout=inhibition&item= `Cc1cc(/C=C/c2c(F)cccc2F)cc(C)c1O`
12

Could you tell me which inhibition is on file for `Cc1cc(/C=C/c2ccc(F)cc2F)cc(C)c1O` ?
25

Quick one: inhibition of `Cc1cc(/C=C/c2ccc3ccccc3c2)cc(C)c1O` ?
16

// query inhibition value for entry `CC(C)(C)c1cc(/C=C/c2ccc(F)cc2)cc(C(C)(C)C)c1O`
24

Please report the recorded inhibition for `Cc1cc(/C=C/c2ccc(C(C)C)cc2)cc(C)c1O` .
11

Report inhibition for `CCc1cc(/C=C/c2ccc(C)cc2)cc(CC)c1O` please.
21

Which inhibition reading was recorded for the compound `Cc1cc(/C=C/c2ccccc2C(F)(F)F)cc(C)c1O` ?
14

Return reported inhibition; argument: `Cc1cc(/C=C/c2ccncc2)cc(C)c1O`
1

Using the record for `Cc1cc(/C=C/c2cc(F)cc(F)c2)cc(C)c1O` , report its inhibition.
6

Fill in the blank: the reported inhibition of `Cc1cc(/C=C/c2csc3ccccc23)cc(C)c1O` is ____.
13

Need inhibition, item `Cc1cc(/C=C/c2ccccc2Br)cc(C)c1O`
26

I have this compound here, `CCCC/C(=C\c1cc(C)c(O)c(C)c1)c1ccc(F)cc1` , and I need its recorded inhibition.
17

----------
experiment: Inhibition of human platelet Prostaglandin G/H synthase at the concentration of 10 uM
Assign inhibition to each entry below.
Please provide the amount together with its unit, number first.

What inhibition value was documented for this compound, `COc1cc(/C=C/c2cccs2)cc(F)c1O` ?
97%

So what's the measured inhibition for this one? `Cc1cc(/C=C/c2ccsc2)cc(C)c1O`
96%

Name the recorded inhibition for `Cc1cc(/C=C/c2ccccc2C(F)(F)F)cc(C)c1O` .
72%

# get_value(readout='inhibition', item= `CCCC/C(=C\c1cc(C)c(O)c(C)c1)c1ccc(F)cc1` )
86%

So what's the measured inhibition for this one? `Cc1cc(Cc2cccnc2)cc(C)c1O`
7%

Fill in: inhibition of `Cc1cc(/C=C2\CCOC2=O)cc(C)c1O` is ___
0%

# input compound: `Cc1cc(/C=C/C(=O)c2cccs2)cc(C)c1O` ; wanted: its inhibition
82%

# query: inhibition of entry `Cc1cc(/C=C/c2ccccc2Br)cc(C)c1O`
91%

I am curious: what inhibition value has been reported for `Cc1cc(CCC(=O)c2ccc(F)cc2)cc(C)c1O` ?
80%

# query: inhibition of entry `COc1ccc(/C=C/c2cc(C(C)(C)C)c(O)c(C(C)(C)C)c2)cc1`
5%

Need inhibition, item `Cc1cc(/C=C/C(=O)c2ccc(F)cc2)cc(C)c1O`
71%

Name the recorded inhibition for `Cc1cc(/C=C/c2ccccc2OCc2ccccc2)cc(C)c1O` .
92%

Fill blank: measured inhibition of the compound `COc1cc(/C=C/c2cccs2)cc(OC)c1O` is ____.
86%

----------
molecular target: Polyunsaturated fatty acid 5-lipoxygenase (Homo sapiens, UniProt P09917); experiment: Inhibition of human neutrophil 5-lipoxygenase
Sequence (P09917 whole entry): as above
pIC50: −log10 of the molar value.
Answer each item with its documented pIC50.

// pIC50 lookup, key: `COc1cc(/C=C/c2cccs2)cc(OC)c1O`
~7.00

# get_value(readout='pIC50', item= `Cc1cc(Cc2cccnc2)cc(C)c1O` )
< 6.00

Requested read-out: pIC50. Entry: `COc1ccc(/C=C/c2cc(C(C)C)c(O)c(C(C)C)c2)cc1`
> 6.00

Item under review: `Cc1cc(/C=C/c2ccccc2Br)cc(C)c1O` . Reported pIC50?
> 6.00

Give its pIC50 value. Item: `COc1cc(/C=C/c2cccs2)cc(F)c1O`
> 6.00

# query: pIC50 of entry `Cc1cc(/C=C/c2ccc(Cl)cc2)cc(C)c1O`
6.77

Would you kindly share the measured pIC50 for `Cc1cc(/C=C/c2cccs2)cc(F)c1O` ?
> 6.00

# get_value(readout='pIC50', item= `CCc1cc(/C=C/c2ccc(C)cc2)cc(CC)c1O` )
> 6.00

Reported pIC50, molecule `Cc1cc(/C=C/c2cccnc2)cc(C)c1O` : ____
6.43

What value of pIC50 has been recorded for this entry: `Cc1cc(CCc2ccc(F)cc2)cc(C)c1O`
< 6.00

I have this molecule here, `Cc1cc(/C=C/c2ccncc2)cc(C)c1O` , and I need its recorded pIC50.
6.00

What measured pIC50 goes with `Cc1cc(/C=C/c2csc3ccccc23)cc(C)c1O` ?
> 6.00

Quick check: pIC50 of `COc1ccc(/C=C/c2cc(C)c(O)c(C)c2)cc1` ?
7.04

Consider the molecule `CCc1cc(/C=C/c2cccs2)cc(OC)c1O` and give its measured pIC50.
7.05

Given the entry `Cc1cc(CCc2cccs2)cc(C)c1O` , report its measured pIC50.
> 6.00

Need pIC50, item `Cc1cc(/C=C/c2c(F)cccc2F)cc(C)c1O`
> 6.00

So what does the record say about pIC50 for `CCCc1cc(/C=C/c2cccs2)cc(OC)c1O` ?
7.07

Consider the molecule shown here: `CC(C)c1cc(/C=C/c2ccc(F)cc2)cc(C(C)C)c1O` What is its recorded pIC50?
< 6.00

pIC50 lookup needed for `CCCOc1ccc(/C=C/c2cc(C)c(O)c(C)c2)cc1` , thanks.
> 6.00

I am curious: what pIC50 value has been reported for `C/C(=C\c1cc(C)c(O)c(C)c1)c1ccc(F)cc1` ?
6.37

So what does the record say about pIC50 for `Cc1ccc(/C=C/c2cc(C)c(O)c(C)c2)s1` ?
> 6.00

Query: pIC50; subject: `CCCCOc1ccc(/C=C/c2cc(C)c(O)c(C)c2)cc1`
~6.00

// lookup pIC50 for `CC(C)c1cc(/C=C/c2cccs2)cc(C(C)C)c1O`
> 6.00

Look at this molecule and give its reported pIC50. `Cc1ccc(/C=C/c2cc(C)c(O)c(C)c2)cc1`
6.54

Entry `CCc1ccc(/C=C/c2cc(C)c(O)c(C)c2)cc1` : reported pIC50 = ?
6.23

Which value of pIC50 has been reported for `CC(C)c1cc(/C=C/c2cccnc2)cc(C(C)C)c1O` in the records?
6.70

Quick check: pIC50 of `Cc1cc(/C=C/c2cccc3ccccc23)cc(C)c1O` ?
> 6.00

State the recorded pIC50 for this entry: `Cc1ccc(/C=C/c2cc(C(C)(C)C)c(O)c(C(C)(C)C)c2)cc1`
< 6.00

// pIC50 lookup, key: `Cc1cc(/C=C/c2cccs2)cc(Cl)c1O`
> 6.00

Could you tell me which pIC50 is on file for `Cc1cc(C(=O)/C=C/c2cccs2)cc(C)c1O` ?
< 6.00

Would you mind telling me what pIC50 value was observed for `Cc1ccc(C)c(/C=C/c2cc(C)c(O)c(C)c2)c1` ?
6.62

Report pIC50 for `CC(C)(C)c1cc(/C=C/c2ccc(F)cc2)cc(C(C)(C)C)c1O` please.
< 6.00

Recorded pIC50 of `Cc1cc(/C=C/c2ccc3ccccc3c2)cc(C)c1O` , please.
> 6.00

Give its pIC50 value. Item: `Cc1cccc(/C=C/c2cc(C)c(O)c(C)c2)c1`
6.89

Entry `Cc1cc(/C=C/c2cccc(C(=O)O)c2)cc(C)c1O` has what pIC50?
< 6.00

Requested read-out: pIC50. Entry: `Cc1cc(/C=C/c2ccc(F)cc2F)cc(C)c1O`
> 6.00

Look up pIC50 for this molecule: `Cc1cc(/C=C/c2ccsc2)cc(C)c1O`
7.35

What does the record list as pIC50 for `Cc1cc(/C=C2\CCOC2=O)cc(C)c1O` ?
< 6.00

Given the molecule `Cc1cc(/C=C/c2ccccn2)cc(C)c1O` , what is its reported pIC50?
> 6.00

Fill in the blank: the reported pIC50 of `Cc1cc(CCC(=O)c2ccc(F)cc2)cc(C)c1O` is ____.
< 6.00

Field request: pIC50 | item: `Cc1cc(/C=C/c2ccccc2C(=O)O)cc(C)c1O`
< 6.00

# pIC50 lookup, item `Cc1cc(/C=C/c2cc(F)cc(F)c2)cc(C)c1O`
> 6.00

GET /values?readout=pIC50&item= `CC(C)(C)c1cc(/C=C/c2cccs2)cc(C(C)(C)C)c1O`
5.92

What value of measured pIC50 is listed for `Cc1cc(C(=O)c2cccs2)cc(C)c1O` ?
< 6.00

Quick one: pIC50 for `C=CCc1cc(/C=C/c2cccs2)cc(C)c1O` ?
7.19

Look up pIC50: `Cc1cc(/C=C/C(=O)c2ccc(F)cc2)cc(C)c1O`
< 6.00

Request the reported pIC50 associated with `COc1ccc(/C=C/c2cc(C(C)(C)C)c(O)c(C(C)(C)C)c2)cc1`
< 6.00

Entry under review: `Cc1cc(/C=C/c2ccccc2OCc2ccccc2)cc(C)c1O` . Reported pIC50?
> 6.00

pIC50 for `Cc1cc(/C=C/c2ccc(Cl)s2)cc(C)c1O` ?
> 6.00

Which pIC50 value is on record for `CCCC/C(=C\c1cc(C)c(O)c(C)c1)c1ccc(F)cc1` ?
> 6.00

Requested read-out: pIC50. Entry: `Cc1cc(/C=C/c2cccs2)cc(C)c1O`
7.27

pIC50 lookup needed for `Cc1cc(/C=C/c2ccc(F)cc2)cc(C)c1O` , thanks.
6.92

Each recorded value in this set is attributed to ChEMBL document CHEMBL1124816.
